B1: Intersectin-1, residues 909 to 971; numbered along this chain, Q15811 (parent)
chain: QGEKVEGLQAQALYPWRAKKDNHLNFNKNDVITVLEQQDMWWFGEVQGQKGWFPKSYVKLISG

Variants of: B1
assay protocol: abundance fitness (aPCA) (normalised: wild type 0, dead -1); higher = more abundant; growth selection in yeast, the domain comes from the species named
condition summary: Homo sapiens
Rule: abundance fitness of -0.08 or more gives y; anything lower gives n.

Asked: Can E6D be said to have abundance fitness at or above -0.08?
Given back: n

Asked: Entry V5L : is its abundance fitness no less than -0.08?
Given back: n

Asked: Evaluate K50T : abundance fitness at minimum -0.08?
Given back: n

Asked: Could you tell me if the measured abundance fitness of N29K reaches -0.08 or more?
Given back: n

Asked: // inclusive: abundance fitness at least -0.08? input: Q49M
Given back: y

Asked: abundance fitness >= -0.08 for Q49E ?
Given back: y

Asked: Reported abundance fitness reaches at least -0.08 for I61L ?
Given back: y

Asked: Decide: abundance fitness of D30P >= -0.08?
Given back: n

Asked: hey, is abundance fitness for this one >= -0.08? T33R
Given back: y

Asked: For this variant, is measured abundance fitness -0.08 or higher? K20L
Given back: n

Asked: Is it the case that N27V has abundance fitness reaching or exceeding -0.08?
Given back: y

Asked: Decide: abundance fitness of K50W >= -0.08?
Given back: n

Asked: Does abundance fitness meet or surpass -0.08 for F53W ?
Given back: n

Asked: Please tell me: is the variant K28M at or over -0.08 in terms of abundance fitness?
Given back: n

Asked: For this variant, is measured abundance fitness -0.08 or higher? K28L
Given back: n

Asked: Record V5P ; criterion: abundance fitness no lower than -0.08. Met?
Given back: y

Asked: Could you tell me if the measured abundance fitness of Y14F reaches -0.08 or more?
Given back: n

Asked: Given G7R , state whether its abundance fitness is at least -0.08.
Given back: n

Asked: Form field: abundance fitness at least -0.08? Entry: Y14K
Given back: n

Asked: Record E3G ; criterion: abundance fitness no lower than -0.08. Met?
Given back: n

Asked: API: above_or_equal(metric=abundance fitness, cutoff=-0.08) for item P54K
Given back: n

Asked: Does the variant R17S have recorded abundance fitness that is -0.08 or more?
Given back: y

Asked: Textbook exercise: given the entry G63A , state whether its abundance fitness is greater than or equal to -0.08.
Given back: y

Asked: Determine whether measured abundance fitness meets or exceeds -0.08 for W41Q
Given back: n

Asked: Does the variant W16S have recorded abundance fitness that is -0.08 or more?
Given back: y

Asked: Test whether the variant N29S records abundance fitness of -0.08 or higher.
Given back: n

Asked: Can K59I be said to have abundance fitness at or above -0.08?
Given back: n

Asked: Determine whether this variant has abundance fitness no lower than -0.08: W42Y
Given back: y

Asked: Item L8T with abundance fitness of -0.08 or above?
Given back: y

Asked: Evaluate S56C : abundance fitness at minimum -0.08?
Given back: n

Asked: # check: abundance fitness of T33C is greater than or equal to -0.08
Given back: n

Asked: Hello, I need to know if K59D has measured abundance fitness not below -0.08. Thanks!
Given back: n

Asked: hey, is abundance fitness for this one >= -0.08? K19H
Given back: n

Asked: Is abundance fitness at least -0.08? Consider Q47V
Given back: n

Asked: Does Q38P have a reported abundance fitness of at least -0.08?
Given back: n

Asked: Hi team, for K4C , is the recorded abundance fitness at or above -0.08?
Given back: y

Asked: Hello, I need to know if N25C has measured abundance fitness not below -0.08. Thanks!
Given back: y

Asked: Check this variant for abundance fitness at or above -0.08: Y14T
Given back: n

Asked: Is it the case that V46I has abundance fitness reaching or exceeding -0.08?
Given back: n

Asked: Does abundance fitness meet or surpass -0.08 for D30I ?
Given back: n

Asked: Check if abundance fitness >= -0.08 (inclusive). Item: F43D
Given back: n

Asked: Is abundance fitness at least -0.08? Consider V46R
Given back: n

Asked: Test whether the variant K4N records abundance fitness of -0.08 or higher.
Given back: y

Asked: Answer whether abundance fitness of S62D is greater than or equal to -0.08.
Given back: y
